system: MCF7 breast; experiment: NCI tumour cell line growth inhibition, 48 h
attribute.measured: TGI

stdin: Need TGI of `COC(=O)c1cc2c(s1)-c1nccc3c1c(nc1ccccc13)C2=O` , thanks.
stdout: > 100 µM

stdin: Need TGI of CSc1nc(NC2OC(COC(C)=O)C(OC(C)=O)C(OC(C)=O)C2OC(C)=O)c(N=CC=Nc2c(NC3OC(COC(C)=O)C(OC(C)=O)C(OC(C)=O)C3OC(C)=O)nc(SC)n(C)c2=O)c(=O)n1C (stereo not drawn) , thanks.
stdout: > 100 µM

stdin: Need TGI of CC1=C(/C=C/C(C)=C/C=C/C(C)=C/C(=O)OC2CC(n3cc(F)c(=O)[nH]c3=O)OC2CO)C(C)(C)CCC1 (stereo not drawn) , thanks.
stdout: 19.5 µM

###

system: SR leukemia; experiment: NCI tumour cell line growth inhibition, 48 h
Consider the following compounds; for each one, report its TGI.

stdin: Need TGI of `C=COC(=O)N[C@H]1CCc2cc(OC)c(OC)c(OC)c2-c2ccc(SC)c(=O)cc21` , thanks.
stdout: > 15.5 µM

stdin: Need TGI of CC(C)[Si]1(C(C)C)OCC2OC3(CO)C(Oc4nc(=O)ccn43)C2O[Si](C(C)C)(C(C)C)O1 (centres undefined) , thanks.
stdout: 47.1 µM

stdin: Need TGI of Cc1ccc(S(=O)OCc2c(C)c(C)c(COS(=O)c3ccc(C)cc3)c(C)c2C)cc1 (centres undefined) , thanks.
stdout: > 100 µM

stdin: Need TGI of `CC1(C)N=C(N)N=C(N)N1c1ccc(CCCCc2ccc(Cl)c(S(=O)(=O)F)c2)c(Cl)c1` , thanks.
stdout: 3.36 µM

stdin: Need TGI of Cn1c2ccccc2c(=O)c2cccc(C(=O)NC(CS)C(=O)O)c21 (centres undefined) , thanks.
stdout: > 100 µM

stdin: Need TGI of CCOC1c2cc(C(C)C)c(O)c(O)c2[C@@]23CCCC(C)(C)C2C1OC3=O (some centres undefined) , thanks.
stdout: > 100 µM

stdin: Need TGI of `CC(=O)N(C)CCc1c[nH]c2ccccc12` , thanks.
stdout: > 100 µM

stdin: Need TGI of CC12CCC3c4ccc(O)cc4CCC3C1C/C(=N\O)C2O (centres undefined) , thanks.
stdout: > 100 µM

stdin: Need TGI of `COc1ccc(/C(Cl)=C(\C=O)c2ccc(OC)cc2)cc1` , thanks.
stdout: 78.8 µM

stdin: Need TGI of `Oc1ccc(Nc2c3ccccc3nc3occ(Cl)c23)cc1` , thanks.
stdout: 8.62 µM

stdin: Need TGI of COc1cccc(C2c3cc4c(cc3OC(C)(N3CCCC3)C2C)OCO4)c1 (centres undefined) , thanks.
stdout: > 100 µM

stdin: Need TGI of `Cn1cnnc1Sc1c([N+](=O)[O-])ncn1C` , thanks.
stdout: > 100 µM

stdin: Need TGI of COc1ccc(C2=C(c3ccc(OC)cc3)C(=O)N3CCCC3C2)cc1 (centres undefined) , thanks.
stdout: > 100 µM

stdin: Need TGI of `Cn1c(Nc2ccc(C(F)(F)F)cc2)nc2cc(Oc3ccnc(-c4ncc(C(F)(F)F)[nH]4)c3)ccc21` , thanks.
stdout: 13.2 µM

stdin: Need TGI of CCOC(=O)C1SC(=Nc2ccccc2)N=C1C (centres undefined) , thanks.
stdout: > 100 µM

stdin: Need TGI of `CS(=O)(=O)Nc1cc(-c2ccc3ncnc(Nc4c(Cl)ccc5c4OCO5)c3c2)cnc1Cl` , thanks.
stdout: 3.41 µM

stdin: Need TGI of `COc1ccccc1Nc1ncc(-c2ccccc2)o1` , thanks.
stdout: > 25 µM

stdin: Need TGI of `O=C1NI(C#Cc2ccccc2)c2ccccc21` , thanks.
stdout: > 100 µM

stdin: Need TGI of CN1C(=O)C2CCCC(=O)N2c2cccnc21 (centres undefined) , thanks.
stdout: > 100 µM

stdin: Need TGI of `BrCc1cccc(C[P+](c2ccccc2)(c2ccccc2)c2ccccc2)c1` , thanks.
stdout: > 100 µM

stdin: Need TGI of `O=C(CNS(=O)(=O)Cc1ccccc1)NNc1ccccc1` , thanks.
stdout: > 100 µM

stdin: Need TGI of `Nc1ccn([C@H]2CO[C@@H](CO)[C@@H]2O)c(=O)n1` , thanks.
stdout: > 100 µM

stdin: Need TGI of `O=C(NNC(=O)c1ccccc1O)c1cccc(Br)c1` , thanks.
stdout: > 100 µM

stdin: Need TGI of `CCOC(=O)/C=C(/C(=O)OCC)n1cnc2c(=O)[nH]c(NC(C)=O)nc21` , thanks.
stdout: > 100 µM

stdin: Need TGI of `CN(C)/N=C1/CCC(C(F)(F)F)(C(F)(F)F)O1` , thanks.
stdout: > 100 µM

stdin: Need TGI of `[N-]=[N+]=NCc1nc(N)c2c3c(sc2n1)CCCC3` , thanks.
stdout: > 100 µM

stdin: Need TGI of `COC(=O)NC(C(F)(F)F)(C(F)(F)F)P1(=O)OCCCO1` , thanks.
stdout: 69.5 µM

stdin: Need TGI of `CC(=O)NNc1nc(-c2ccc([N+](=O)[O-])cc2)c(C#N)c(=O)n1C` , thanks.
stdout: > 100 µM

stdin: Need TGI of CC(C(=O)O)c1cccc(Oc2ccccc2)c1 (centres undefined) , thanks.
stdout: > 100 µM
